The origin of these recorded values is PubChem BioAssay AID1159580.

assayExplanation: chemical genetic growth profiling, strain panel (AID 1159580);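 note: tested at 20 µM; growth read once vehicle control cultures reached saturation at 30 °C; 1 = growth at the plate median or of vehicle wells; lower values mean less growth of the strain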
experimentalSetup: S. cerevisiae deletion strains, growth OD, locus YDL028C, strain MPS1, hits give low values
Screen size: about 5,500 compounds; about 2,000 (36%) were called active. Another 18% or so got no clear call; they are omitted. The list shows a part of the results.
measurementType: normalized growth
One number for each entry.

Record excerpt, results attached:
CC(C)(C)C1=NN(c2nc3ccc(Cl)cc3s2)C(=O)C1
0.105
C=CC(=O)N1CCc2cc([N+](=O)[O-])ccc21
0.796
O=C(NCc1ccco1)c1ccc(Oc2cc(Cl)cc(Cl)c2)o1
0.967
N#C/C(=N/Nc1ccccc1Cl)S(=O)(=O)c1ccc(Cl)cc1
0.975

Field: normalized growth. Fill in for each record below.
1. Cn1cncc1S(=O)(=O)/C(C#N)=C/c1ccccc1Sc1ccc(Cl)cc1
2. C/C(=N/NC(N)=S)c1ccccn1
3. Cc1c(Cl)cccc1NC(=S)N1CCCN(c2ccc(C(F)(F)F)cc2[N+](=O)[O-])CC1
4. Cc1oc2c(F)c(F)c(F)c(F)c2c1C(=O)ONC(N)c1ccc(OS(=O)(=O)N(C)C)cc1 (stereo unspecified)
5. CCC(C)c1ccccc1NC(=O)c1cc2cccc([N+](=O)[O-])c2[nH]1 (stereo unspecified)
6. O=C(C=C(O)c1ccc(Br)cc1)C(=O)Nc1ccccc1
7. C/C(=N/NC(N)=S)c1ccc(Oc2c(Cl)cncc2Cl)cc1

Reply text:
1: 0.979; 2: 0.97; 3: 0.995; 4: 0.959; 5: 0.92; 6: 0.834; 7: 0.992

* * *

Would you mind telling me the reported normalized growth of each entry?
assayExplanation: chemical genetic growth profiling, strain panel (AID 1159580)
experimentalSetup: S. cerevisiae deletion strains, growth OD, locus YLR268W, strain sec22, hits give low values
Screen size: about 5,500 compounds; about 2,000 (36%) were called active. Another 18% or so got no clear call; they are omitted. The list shows a part of the results.

O=c1ccc2ccccc2o1
0.961 (inactive)
C[CH2][Hg][S]c1ccccc1C(=O)O
0.0621 (active)
O=C(O)c1ccccc1OP(=O)(O)O
1.01 (inactive)
CCC(C(N)=O)c1ccccc1 (stereo not drawn)
1.01 (inactive)
N=c1nc(N2CCCCC2)cc(N)n1O
1.08 (inactive)

Field: normalized growth. Fill in for each record below.
1. OCCN(CCO)c1nc(N2CCCCC2)c2nc(N(CCO)CCO)nc(N3CCCCC3)c2n1
2. CCC(C(=O)O)c1ccccc1 (stereo not drawn)
3. COc1ccc(C(=O)c2ccccc2O)c(O)c1
4. CCCCCC(C)N (stereo not drawn)

Reply text:
["1.01 (inactive)", "1.01 (inactive)", "0.938 (inactive)", "0.972 (inactive)"]

Field: normalized growth. Fill in for each record below.
1. COc1ccc(C(=O)c2ccccc2)c(O)c1
2. N#Cc1c(Cl)c(Cl)c(Cl)c(C#N)c1Cl
3. COc1cc(O)c(C(=O)c2ccccc2)cc1O
4. C[N+](C)(C)CCOP(=O)([O-])OP(=O)(O)OC[C@H]1OC(n2ccc(N)nc2=O)[C@H](O)[C@@H]1O (stereo partly drawn)

Reply text:
1. 0.917 (inactive)
2. 0.998 (inactive)
3. 0.976 (inactive)
4. 0.974 (inactive)

* * *

assayExplanation: chemical genetic growth profiling, strain panel (AID 1159580)
experimentalSetup: S. cerevisiae deletion strains, growth OD, locus YCL069W, strain vba3, hits give low values
Out of some 5,500 compounds screened, about 2,000 (36%) were called active. Inconclusive results (about 18%) are left out. The list shows a part of the results.
Would you mind telling me the reported normalized growth of each entry?
Give bare numbers.

Field: normalized growth. Fill in for each record below.
1. COC(=O)[C@@H]1C(O)CC[C@H]2CN3CCc4c([nH]c5ccccc45)[C@@H]3C[C@@H]21 (stereo partly specified)
2. CC(C)(N=NC(C)(C)C(=N)N)C(=N)N
3. Cc1cc(=O)c2c(O)c(C)c(O)cc2o1
4. Cc1cc(=O)c2c(O)cc(O)c(C)c2o1
5. COC1C(O)C(O)C(O)[C@@H](O)C1O (stereo partly specified)
6. CNc1ccccc1C(=O)N1CCc2c([nH]c3ccccc23)C1=O
7. O=C(/C=C/c1ccccc1)O[C@H]1C[C@@H](O)[C@]2(O)C=CO[C@@H](O[C@@H]3O[C@H](CO)[C@@H](O)[C@H](O)[C@H]3O)[C@H]12

Reply text:
1. 1.01
2. 1.02
3. 1.02
4. 0.982
5. 0.98
6. 0.987
7. 1.03

Field: normalized growth. Fill in for each record below.
1. OCc1ccccc1O[C@@H]1O[C@H](CO)[C@@H](O)[C@H](O)[C@H]1O
2. CN=C(NC#N)NCCSCc1nc[nH]c1C
3. CC[C@H]1OC(=O)C[C@@H](O)[C@H](C)[C@@H](O[C@@H]2O[C@H](C)[C@@H](O[C@H]3C[C@@](C)(O)[C@@H](O)[C@H](C)O3)[C@H](N(C)C)[C@H]2O)[C@@H](CC=O)C[C@@H](C)C(=O)/C=C/C(C)=C/[C@@H]1CO[C@@H]1O[C@H](C)[C@@H](O)[C@@H](OC)[C@H]1OC

Reply text:
1
1.01
0.992

Inquiry: Which normalized growth value is on record for `COc1cc(O)c2c(=O)cc(C)oc2c1CC=C(C)C` ?
Reply text: 0.997

* * *

assayExplanation: chemical genetic growth profiling, strain panel (AID 1159580);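 note: tested at 20 µM; growth read once vehicle control cultures reached saturation at 30 °C; 1 = growth at the plate median or of vehicle wells; lower values mean less growth of the strain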
experimentalSetup: S. cerevisiae deletion strains, growth OD, locus YHR079C, strain IRE1
In all, about 5,500 compounds went through this assay and about 2,000 (36%) were called active. Roughly 18% stayed inconclusive and do not appear here. Rule as the data show it: active = normalized growth mostly below about 0.91 (no sharp cut-off); inconclusive = no clear call, values can overlap the other calls; inactive = mostly above about 0.92. The list shows a part of the results. Where a SMILES comes first, the peptide text is derived from it.
Write down the outcome that applies. Available outcomes: label 1 (active), label 0 (inactive)

COc1ccc2cc1Oc1ccc(cc1)C[C@H]1c3cc(c(OC)cc3CCN1C)Oc1c(OC)c(OC)cc3c1[C@H](C2)N(C)CC3
label 0

Inquiry: For CC(C)C[C@H](N)C(=O)N[C@@H](C)C(=O)O (H-Leu-Ala-OH) , which call appears in the assay record?
Reply text: label 0

* * *

assayExplanation: chemical genetic growth profiling, strain panel (AID 1159580);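 note: tested at 20 µM; growth read once vehicle control cultures reached saturation at 30 °C; 1 = growth at the plate median or of vehicle wells; lower values mean less growth of the strain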
experimentalSetup: S. cerevisiae deletion strains, growth OD, locus YER111C, strain swi4, hits give low values
The campaign covered roughly 5,500 compounds. About 2,000 (36%) were called active. Not shown: some 18% with an inconclusive outcome. This is one part of the list.
Hi! Just check whether normalized growth is below 1. Below gives 1 (yes), equal or above gives 0 (no).

Record excerpt, results attached:
CCCCCCCCCCCCCCCCOP(=O)([O-])OCC[N+](C)(C)C
1 (yes)
CCCCCC(C)N (centres undefined)
0 (no)

Inquiry: Report whether reported normalized growth is lower than 1 (strictly) for `CCN(CC)C(=S)SSC(=S)N(CC)CC`
Reply text: 1 (yes)

Inquiry: Report whether reported normalized growth is lower than 1 (strictly) for `O=C(/C=C/c1ccccc1)O[C@H]1C[C@@H](O)[C@]2(O)C=CO[C@@H](O[C@@H]3O[C@H](CO)[C@@H](O)[C@H](O)[C@H]3O)[C@H]12`
Reply text: 0 (no)

Inquiry: Report whether reported normalized growth is lower than 1 (strictly) for O=C(O)C1CC([C@@H]2CCCCN2)CN2CCCCC12 (some centres undefined)
Reply text: 1 (yes)

Inquiry: Report whether reported normalized growth is lower than 1 (strictly) for COC1C(O)C(O)C(O)[C@@H](O)C1O (some centres undefined)
Reply text: 1 (yes)

Inquiry: Report whether reported normalized growth is lower than 1 (strictly) for `CCCCCCCCCCCCC[N+](C)(C)Cc1ccccc1`
Reply text: 1 (yes)

* * *

Would you mind telling me the reported normalized growth of each entry?
assayExplanation: chemical genetic growth profiling, strain panel (AID 1159580);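 note: tested at 20 µM; growth read once vehicle control cultures reached saturation at 30 °C; 1 = growth at the plate median or of vehicle wells; lower values mean less growth of the strain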
experimentalSetup: S. cerevisiae deletion strains, growth OD, locus YMR307W, strain GAS1, hits give low values
Screen size: about 5,500 compounds; about 2,000 (36%) were called active. Another 18% or so got no clear call; they are omitted. The list shows a part of the results.
Numbers only.

CCCCCCCCCCCCCCCCCCOC[C@H](COP(=O)([O-])OCC[N+](C)(C)C)OC
1

Field: normalized growth. Fill in for each record below.
1. C[N+](C)(C)CCOP(=O)([O-])OP(=O)(O)OC[C@H]1OC(n2ccc(N)nc2=O)[C@H](O)[C@@H]1O (some centres not stated)
2. C[CH2][Hg][S]c1ccccc1C(=O)O
3. CCc1cccc(C)c1N(C(=O)CCl)C(C)COC (configuration not stated)
4. Nc1nc2ccc(Cl)cc2c2nc(-c3ccco3)nn12
5. N#C/C(=C\c1ccc(O)c(O)c1)C(=O)Nc1ccccc1
6. Nc1nc(Cl)nc2c1ncn2[C@@H]1O[C@H](CO)[C@H](O)C1O (some centres not stated)

Reply text:
[1.04, 0.0969, 1, 0.969, 1, 1]
